# testSummary: compound effects on multiple myeloma cell viability – MM1S, calcein-AM fluorescence, 48 h, basal, profiling panel (AID 1165);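 note: viability of MM1S multiple myeloma cells under basal unstimulated conditions; test concentration not given here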
# protocolConditions: higher = more signal
Everything with z-score lower than -0.4 is 0.0; everything else, including exactly -0.4, is 1.0.

Q: Check this compound for z-score at or above -0.4: O=C1c2ccccc2C(=O)C2CC([C@H]3Oc4ccccc4S(=O)(=O)N4CCC[C@@H]34)=CCC12 (some centres not stated)
Ans: 0.0

Q: Check this compound for z-score at or above -0.4: O=C(CS)NCCCCCNC(=O)[C@@H]1C[C@@H]2C(=O)N3CCC[C@H]3C(=O)N2[C@@H]1c1ccc(O)cc1
Ans: 0.0

Q: Check this compound for z-score at or above -0.4: CC(C)C(CO)N1C(=O)[C@@H]2[C@H]3C(=O)OCC=C[C@H]3OC23C=CCN(CCN2CCOCC2)C(=O)[C@@H]13 (some centres not stated)
Ans: 1.0

Q: Check this compound for z-score at or above -0.4: CC1C=C(CCCO)C=C(C(=O)OCCS(C)(=O)=O)C(C(=O)OCCS(C)(=O)=O)=CN1Cc1cccc(OC(F)(F)F)c1 (configuration not stated)
Ans: 1.0

Q: Check this compound for z-score at or above -0.4: COc1ccc(C(=O)Nc2ccc(CN3C(=O)[C@@]4(O[C@@H](CC(=O)N5Cc6ccccc6C[C@H]5CO)[C@H]([Si](C)(C)c5ccc(OC)cc5)[C@H]4C)c4ccccc43)cc2)cc1
Ans: 0.0

Q: Check this compound for z-score at or above -0.4: COCCCNC(=O)[C@@]1(Cc2ccccc2I)c2ccccc2C(=O)N(Cc2ccccc2Cl)[C@H]1c1ccc(CO)cc1
Ans: 1.0

Q: Check this compound for z-score at or above -0.4: C=CCC(OC(C)=O)[C@@H]1[C@@H](N(Cc2ccc(-c3ccccc3)cc2)C(=O)c2cccc3ccccc23)c2cc(OCCCO)ccc2N1C(=O)c1ccc2ccccc2n1 (some centres not stated)
Ans: 1.0

====

# Test system: Fibrinogen (Alexa647-labelled)
# testSummary: Alexa647-fibrinogen binding to printed small molecules – biochemical, small-molecule microarray, 635/667 nm fluorescence, artefact control for SMM control-protein annotation, profiling panel (AID 1131);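 note: z-score merges 667 nm fluorescence with per-spot signal-to-noise over triplicate slides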
# protocolConditions: fibrinogen-A647 binding fluorescence, higher = more signal
Everything with composite z-score lower than 0.2 is no (0); everything else, including exactly 0.2, is yes (1).

Q: Check this compound for composite z-score at or above 0.2: COc1cccc(C[C@H]2C[C@@H](CO[Si](C(C)C)(C(C)C)C(C)C)N3C(=O)[C@]4(C(C)=O)O[C@]23[C@H]2C(=O)N(C)C(=O)[C@H]24)c1
Ans: yes (1)

Q: Check this compound for composite z-score at or above 0.2: COc1cc2c(cc1OC)CN(C(=O)[C@@H]1[C@H]3C(=O)O[C@H](c4ccccc4)[C@H](c4ccccc4)N3[C@H](c3ccc(OCCO)cc3)[C@@]13C(=O)Nc1ccc(C#CCCO)cc13)CC2
Ans: yes (1)

Q: Check this compound for composite z-score at or above 0.2: O=C(CS)NCCCCCNC(=O)[C@@H]1C[C@@H]2C(=O)N3CCC[C@H]3C(=O)N2[C@@H]1c1ccc(O)cc1
Ans: no (0)

Q: Check this compound for composite z-score at or above 0.2: CC1(C)[C@@H]2CC(C(O)C3C=CC4C(=O)N(c5ccccc5)C(=O)C4N3Nc3ccccc3F)=C[C@@H]1C2 (stereo not given in full)
Ans: yes (1)

Q: Check this compound for composite z-score at or above 0.2: COC(=O)C(CC#Cc1ccc2c(c1)[C@]1(C(=O)N2)[C@H](c2ccc(O)cc2)N2[C@H](c3ccccc3)[C@H](c3ccccc3)OC(=O)[C@H]2[C@@H]1C(=O)O)C(=O)OC
Ans: yes (1)

Q: Check this compound for composite z-score at or above 0.2: CO[C@H]1O[C@H](CO)[C@@H](OC(=O)Nc2ccc(C(F)(F)F)cc2)[C@H](OC(=O)Nc2ccccc2)[C@H]1OC(=O)Nc1ccccc1
Ans: yes (1)

Q: Check this compound for composite z-score at or above 0.2: Cc1ccc(S[C@]2(C(=O)O)CC(=O)N(Cc3ccccc3C(F)(F)F)[C@@H]2c2ccc(CO)cc2)cc1
Ans: no (0)

Q: Check this compound for composite z-score at or above 0.2: COCC1=C([C@H](O)CCc2ccccc2)[C@H](CO)[C@@H]2C(=O)N(C)C(=O)[C@@H]2C1
Ans: no (0)

Q: Check this compound for composite z-score at or above 0.2: COc1ccc(C#Cc2ccc3c(c2)[C@]2(C(=O)N3)[C@H](C(=O)O)[C@H]3C(=O)O[C@H](c4ccccc4)[C@H](c4ccccc4)N3[C@@H]2c2ccc(OCCO)cc2)cc1
Ans: yes (1)

Q: Check this compound for composite z-score at or above 0.2: C[N+](C)(C)CCCC[C@@H]1NC(=O)[C@@H]2C[C@H](C(=O)NCCCCCNC(=O)CS)[C@H](c3cccc(OCCO)c3)N2C1=O
Ans: yes (1)

Q: Check this compound for composite z-score at or above 0.2: O=C1O[C@H](c2ccccc2)[C@H](c2ccccc2)N2[C@H]1[C@@H](C(=O)N1CCCCCCC1)[C@]1(C(=O)Nc3ccccc31)[C@H]2c1ccc(O)cc1
Ans: yes (1)

Q: Check this compound for composite z-score at or above 0.2: C[N+](C)(C)CCCCCCNC(=O)[C@H]1C[C@H]2C(=O)N3CCC[C@H]3C(=O)N2[C@H]1c1cccc(OCCO)c1
Ans: yes (1)

Q: Check this compound for composite z-score at or above 0.2: CC(C)C[C@@H]1NC(=O)[C@@]23C(=O)N[C@@H](Cc4ccccc4)C2[C@H](C)[C@@]2(C)O[C@H]2C3/C=C/C/C=C\CNC(=O)[C@@H]2CCCN2C1=O (stereo not given in full)
Ans: no (0)

Q: Check this compound for composite z-score at or above 0.2: C=CCOC(=O)[C@@H]1[C@H]2C(=O)O[C@H](c3ccccc3)[C@H](c3ccccc3)N2[C@H](c2ccc(OCCOC(=O)[C@H]3C[C@H]4C(=O)N[C@@H](Cc5ccccc5)C(=O)N4[C@H]3c3cccc(OCCO)c3)cc2)[C@@]12C(=O)Nc1ccc(I)cc12
Ans: yes (1)

Q: Check this compound for composite z-score at or above 0.2: C[N+](C)(C)CCCCNC(=O)[C@H]1C[C@H]2C(=O)NCC(=O)N2[C@H]1c1ccc(O)cc1
Ans: no (0)

Q: Check this compound for composite z-score at or above 0.2: COC(=O)c1ccc(OC)c(/C=C\CC(CCc2ccccc2)OC(=O)c2ccncc2)c1 (stereo not given)
Ans: no (0)

Q: Check this compound for composite z-score at or above 0.2: CC(C)N1CC=CC23O[C@@H]4C=CCOC(=O)[C@@H]4[C@H]2C(=O)N(CCCCCCO)[C@@H]3C1=O (stereo not given in full)
Ans: no (0)

Q: Check this compound for composite z-score at or above 0.2: NC(=O)NCC#Cc1ccc2c(c1)[C@]1(C(=O)N2)[C@H](c2ccc(OCCO)cc2)N2[C@H](c3ccccc3)[C@H](c3ccccc3)OC(=O)[C@H]2[C@@H]1C(=O)N1CCCCCCC1
Ans: yes (1)

Q: Check this compound for composite z-score at or above 0.2: CC(C)NC(=O)[C@@]1(Cc2ccccc2I)c2ccccc2C(=O)N(Cc2ccccc2C(F)(F)F)[C@H]1c1ccc(CO)cc1
Ans: yes (1)

Q: Check this compound for composite z-score at or above 0.2: CO[C@H]1O[C@H](CO)[C@@H](OC(=O)c2ccc(Br)cc2)[C@@H]2OC(=O)[C@H](Cc3cccc(Br)c3)C/C=C/C[C@@H](Cc3cccc(Br)c3)C(=O)O[C@@H]12
Ans: yes (1)

Q: Check this compound for composite z-score at or above 0.2: COc1ccc([Si](C)(C)[C@@H]2[C@@H](CCO)O[C@]3(C(=O)N(Cc4cccc(N5C(=O)COc6ccccc65)c4)c4ccccc43)[C@H]2C)cc1
Ans: yes (1)

Q: Check this compound for composite z-score at or above 0.2: O=C1C2C=CC(C(O)c3ccc(Br)cc3)N(Nc3ccccc3)C2C(=O)N1c1ccccc1 (stereo not given)
Ans: yes (1)

Q: Check this compound for composite z-score at or above 0.2: CC1C=C(CCCO)C=C(C(=O)OCCS(C)(=O)=O)C(C(=O)OCCS(C)(=O)=O)=CN1Cc1cccc(OC(F)(F)F)c1 (stereo not given)
Ans: yes (1)

Q: Check this compound for composite z-score at or above 0.2: COC(=O)C(CC#Cc1ccc2c(c1)[C@]1(C(=O)N2)[C@H](c2ccc(O)cc2)N2[C@H](c3ccccc3)[C@H](c3ccccc3)OC(=O)[C@H]2[C@@H]1C(N)=O)C(=O)OC
Ans: no (0)

Q: Check this compound for composite z-score at or above 0.2: C=CCN1C(=O)[C@@]2(O[C@@H](CCO)[C@H]([Si](C)(C)c3ccc(OC)cc3)[C@H]2C)c2cc(NC(=O)[C@H](C)O)ccc21
Ans: no (0)
